test system: COLO 205; assay: NCI tumour cell line growth inhibition, 48 h
Active and inactive are the calls of the source. Rule as the data show it: active = GI50 up to about 1.1 µM and inactive = higher.
Readout Label: GI50

For C=CC(=O)NC(O)(C(=O)OCC)C(F)(F)F (stereo not given) , what is its reported GI50?
> 100 µM (inactive)

Which GI50 reading was recorded for the compound O=C(NC1C/C(=N/O)c2c(Br)sc(Br)c21)C(F)(F)F (stereo not given) ?
51.8 µM (inactive)

What value of GI50 has been reported for the following compound? "C=CCNc1nc2c(s1)C(=O)c1ccccc1C2=O"
20.1 µM (inactive)

Dear colleague, I am looking for the recorded GI50 of the following compound: COc1ccc(C(CC(=O)c2ccc(O)cc2)C(C(=O)c2ccc(O)cc2)C(c2ccc(OC)cc2)C2C(=O)NC(=S)NC2=O)cc1 (stereo not given)
16 µM (inactive)

I have this compound here, "COC(=O)c1ccc(CCc2cc(O)ccc2O)cc1" , and I need its recorded GI50.
23.9 µM (inactive)

Can you look up the measured GI50 of O=C1CSC(c2cccc(Oc3ccccc3)c2)N1c1cc(Cl)ccc1Cl (stereo not given) for me?
36.7 µM (inactive)

What value of GI50 has been reported for the following compound? "Cc1ccc(/C(C#N)=C/c2cccc([N+](=O)[O-])c2)cc1"
> 100 µM (inactive)

What measured GI50 goes with CCOC1=NC(O)c2cccn2-c2sccc21 (stereo not given) ?
7.73 µM (inactive)

Fill blank: measured GI50 of the compound "CC(=C(C(=O)O)C(=O)O)c1cc(-c2cccs2)cc(-c2ccc(Cl)cc2)c1O" is ____.
22.4 µM (inactive)

Please look up its GI50: CC1C(c2ccc3c(c2)OCO3)c2cc3c(cc2OC1N1CCCC1)OCO3 (stereo not given)
31.6 µM (inactive)

Returns the measured GI50 for the input compound. Input: CCCCC(C)C(OC(=O)CC(CC(=O)O)C(=O)O)C(CC(C)CC(O)CCCCC(O)CC(O)C(C)N)OC(=O)CC(CC(=O)O)C(=O)O (stereo not given)
> 100 µM (inactive)

What value of GI50 has been recorded for this entry: "Cc1nc(O)nc2nc3cc(Cl)cc(Cl)c3c(NC(C)(CO)CO)c12"
> 100 µM (inactive)

# input compound: "COc1cc(/C=N/n2c(C)n[nH]c2=O)cc(OC)c1OC" ; wanted: its GI50
> 100 µM (inactive)

I am curious: what GI50 value has been reported for O=C1OC(CC(=O)c2ccccc2Cl)C(Cl)=C1Cl (stereo not given) ?
> 100 µM (inactive)

Given the compound "Oc1c2cccc1Cc1cccc3c1OCCOCCOCCOCCOc1c(cccc1Cc1cccc(c1O)C3)C2" , what is its reported GI50?
> 100 µM (inactive)
